target: β-secretase(BACE) (Homo sapiens); construct: purchased Panvera; assay: BACE FS1% Inhibition Assay; format: biochemical; settings: 3 μM test compound; FS1 substrate
Sequence (P56817 46-501): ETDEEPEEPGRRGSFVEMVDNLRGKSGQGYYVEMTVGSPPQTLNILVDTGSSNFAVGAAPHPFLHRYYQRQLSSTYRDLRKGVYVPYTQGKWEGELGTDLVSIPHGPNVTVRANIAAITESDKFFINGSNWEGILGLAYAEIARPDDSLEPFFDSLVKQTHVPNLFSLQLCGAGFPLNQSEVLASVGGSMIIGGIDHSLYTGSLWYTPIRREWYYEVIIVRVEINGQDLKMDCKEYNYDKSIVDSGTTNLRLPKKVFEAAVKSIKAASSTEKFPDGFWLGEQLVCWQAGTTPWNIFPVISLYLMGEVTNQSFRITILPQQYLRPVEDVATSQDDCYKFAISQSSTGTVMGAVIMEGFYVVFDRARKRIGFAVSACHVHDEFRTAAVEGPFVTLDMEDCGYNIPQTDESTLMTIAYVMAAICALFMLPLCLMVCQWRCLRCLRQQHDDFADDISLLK
Reported Metric: % Inhibition (FS) 3 μM (%)
Give just the number in %; leave the unit off.

Req: Enter recorded % Inhibition (FS) 3 μM with β-secretase(BACE) (Homo sapiens) for CC(C)Oc1ccccc1Oc1ccc2c(c1)CN(Cc1cccc(C(=O)N(C)C3CCCCC3)c1)C(N)=N2 [Compound 478] here.
Resp: 46

Req: Enter recorded % Inhibition (FS) 3 μM with β-secretase(BACE) (Homo sapiens) for CSc1ccc(Sc2ccc3c(c2)CN(Cc2cccc(C(=O)N(C)C4CCCCC4)c2)C(N)=N3)cc1 [Compound 413] here.
Resp: 53

Req: Enter recorded % Inhibition (FS) 3 μM with β-secretase(BACE) (Homo sapiens) for CC(C)[C@@H](CNC(=O)C1CCCCC1)N1Cc2cc(Oc3ccccc3)ccc2N=C1N [Compound 528] here.
Resp: 41

Req: Enter recorded % Inhibition (FS) 3 μM with β-secretase(BACE) (Homo sapiens) for CCCCCC1CC2(C(=O)NCCN3Cc4cc(Oc5ccccc5)ccc4N=C3N)CCC1CC2 (stereo not drawn) [Compound 194] here.
Resp: 38

Req: Enter recorded % Inhibition (FS) 3 μM with β-secretase(BACE) (Homo sapiens) for NC1=Nc2ccc(Oc3ccccc3)cc2CN1C1CCCCN(C(=O)C23CC4CC(CC(C4)C2)C3)C1 (stereo not drawn) [Compound 550] here.
Resp: 67

Req: Enter recorded % Inhibition (FS) 3 μM with β-secretase(BACE) (Homo sapiens) for CC(=O)c1ccccc1-c1ccc2c(c1)CN(Cc1cccc(C(=O)N(C)C3CCCCC3)c1)C(N)=N2 [Compound 323] here.
Resp: 45

Req: Enter recorded % Inhibition (FS) 3 μM with β-secretase(BACE) (Homo sapiens) for NC1=Nc2ccc(Oc3ccccc3)cc2CN1C1CCN(C(=O)C23CC4CC(CC(C4)C2)C3)CC1 [Compound 524] here.
Resp: 44

Req: Enter recorded % Inhibition (FS) 3 μM with β-secretase(BACE) (Homo sapiens) for CCCC(CCC(=O)NC1CCCCCC1)N1Cc2cc(Oc3ccccc3)ccc2N=C1N (stereo not drawn) [Compound 128] here.
Resp: 97

Req: Enter recorded % Inhibition (FS) 3 μM with β-secretase(BACE) (Homo sapiens) for NC1=Nc2ccc(Oc3ccccc3)cc2CN1C(CC(=O)NC1CCCCC1)C1CCCCC1 (stereo not drawn) [Compound 300] here.
Resp: 77

Hello, the source for this data is patent US8383637B2, in case you need it.
